- System: BDF1 mice, P388 leukemia ip, median survival T/C
- procedure-text: NCI In Vivo Anticancer Drug Screen. Data for tumor model P388 Leukemia (intraperitoneal) in B6D2F1 (BDF1) mice
- measurement-conditions: endpoint: median survival time; dose: 25.0 mg/kg/injection; schedule: Q01DX009 (ip); vehicle: Klucel (hydroxypropylcellulose) (HPC)
Inconclusive results and toxic doses are left out. Rule for the calls: active = survival T/C of 150% or more; inactive = T/C below 125% in these data.
Outcomes: True (active), False (inactive)

compound=COc1cc(CC#N)ccc1C target="BDF1 mice, P388 leukemia ip, median survival T/C" assigned_label=False
compound=C[C@]1(O)CC[C@H]2[C@@H]3CCC4=CC(=O)CC[C@]4(C)[C@@]3(F)C(=O)C[C@@]21C target="BDF1 mice, P388 leukemia ip, median survival T/C" assigned_label=False
compound=COc1cccc(NC(=O)N2CCCCC2)c1 target="BDF1 mice, P388 leukemia ip, median survival T/C" assigned_label=False
compound=O=C1C(Cl)=C(N=Nc2c(Cl)c(O)c3ccccc3c2O)C(=O)c2ccccc21 target="BDF1 mice, P388 leukemia ip, median survival T/C" assigned_label=False
compound=CC(=O)O[C@]1(C(C)=O)CC[C@H]2[C@@H]3C[C@H](F)C4=CC(=O)CC[C@]4(C)[C@H]3CC[C@@]21C target="BDF1 mice, P388 leukemia ip, median survival T/C" assigned_label=False
compound=ClCC#Cc1ccccc1 target="BDF1 mice, P388 leukemia ip, median survival T/C" assigned_label=False
compound=COC(=O)c1ccc(C(=O)O)[n+]([O-])c1 target="BDF1 mice, P388 leukemia ip, median survival T/C" assigned_label=False
compound=Cc1c(Br)c(=O)n(-c2ccccc2)n1C target="BDF1 mice, P388 leukemia ip, median survival T/C" assigned_label=False
compound=CNc1ccc(/C=C2\C=Cc3ccccc32)cc1 target="BDF1 mice, P388 leukemia ip, median survival T/C" assigned_label=False
compound=Clc1c(CBr)c(Cl)c(CBr)c(Cl)c1CBr target="BDF1 mice, P388 leukemia ip, median survival T/C" assigned_label=False
compound=O=C(c1ccccc1)c1ccccc1C(=O)c1ccccc1 target="BDF1 mice, P388 leukemia ip, median survival T/C" assigned_label=False
compound=CCOC(=O)CC(C)(C)NCc1ccccc1 target="BDF1 mice, P388 leukemia ip, median survival T/C" assigned_label=False
compound=COc1c(CO)c2c(c(OC)c1OC)-c1ccc(OC)c(=O)cc1[C@@H](NC(C)=O)CC2 target="BDF1 mice, P388 leukemia ip, median survival T/C" assigned_label=True
compound="C1=CC23C4CCC2C2C4C4C(=C1)C3C2N1CCCCC41 (stereo unspecified)" target="BDF1 mice, P388 leukemia ip, median survival T/C" assigned_label=False
compound="CC1CCC(NC(=O)N(CCCl)N=O)CC1 (stereo unspecified)" target="BDF1 mice, P388 leukemia ip, median survival T/C" assigned_label=False
compound=N#Cc1ccc(S(N)(=O)=O)cc1 target="BDF1 mice, P388 leukemia ip, median survival T/C" assigned_label=False

----------
- System: BDF1 mice, P388 leukemia ip, median survival T/C
- procedure-text: NCI In Vivo Anticancer Drug Screen. Data for tumor model P388 Leukemia (intraperitoneal) in B6D2F1 (BDF1) mice
- measurement-conditions: endpoint: median survival time; dose: 200.0 mg/kg/injection; schedule: Q01DX001 (ip); vehicle: saline sonified; higher = longer survival
Toxic doses and inconclusive results are not listed.
quantity-name: T/C

molecule=COc1ccc(S(=O)(=O)NCCC#N)cc1NC(C)=O observed_measurement="100 % of control"
molecule="CC1CC(C)(C)N=C(C(Cc2ccc(Br)cc2)c2ccccc2)O1 (stereo not given)" observed_measurement="110 % of control"
molecule=Cc1ccc(C(c2ccc(C)cc2)C(Cl)(Cl)Cl)cc1 observed_measurement="100 % of control"
molecule=CC1=NNC(=O)C1 observed_measurement="100 % of control"
molecule="CCOC(=O)C(CCC(=O)OC)C1=NC(C)(C)CC(C)O1 (stereo not given)" observed_measurement="100 % of control"
